- MEASURED_TARGET: human MASP2 (Homo sapiens (Human))
- Sequence (O00187 other isoform, or with tags, fused parts or gaps): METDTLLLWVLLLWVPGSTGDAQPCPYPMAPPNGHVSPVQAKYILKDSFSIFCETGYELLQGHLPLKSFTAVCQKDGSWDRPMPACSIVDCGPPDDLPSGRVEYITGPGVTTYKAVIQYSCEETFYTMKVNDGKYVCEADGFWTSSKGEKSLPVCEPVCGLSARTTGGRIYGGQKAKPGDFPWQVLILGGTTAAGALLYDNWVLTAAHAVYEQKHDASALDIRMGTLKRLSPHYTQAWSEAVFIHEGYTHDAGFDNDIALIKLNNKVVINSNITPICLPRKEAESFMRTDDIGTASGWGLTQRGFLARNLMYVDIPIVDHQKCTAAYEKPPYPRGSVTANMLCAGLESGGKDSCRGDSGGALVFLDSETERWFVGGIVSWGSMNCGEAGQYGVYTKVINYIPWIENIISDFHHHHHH
- MEASUREMENT_PROTOCOL: Biochemical human MASP2 assay (FRET substrate)
- ASSAY_CONDITIONS: Average IC50; recombinant human MASP2; read-out: human MASP2 IC50
- Experimental: The MASP1 or MASP2 expression vectors were transfected into the HEK293 (ATCC No. CRL-1573) cell line using Lipofectamine LTX® Reagent (Thermo-Fischer), as described by the manufacturer. […] The increase of fluorescence intensity was measured in appropriate fluorescence plate reader (e.g. TECAN Ultra) using excitation wavelength of 340 nm and emission wavelength of 490 nm. IC50 values were calculated from percentage of inhibition of human MASP2 activity as a function of test compound concentration.
Where a SMILES comes first, the peptide text is derived from it. Bridges are numbered along the chain shown (N, C = ends). [ ]: non-standard residue; d: D form. tBuAla = CC(C)(C)C[C@H](N)C(=O)O; Pen = CC(C)(S)[C@H](N)C(=O)O; Dap = NC[C@H](N)C(=O)O
# IC50 annotations

COMPOUND	IC50, nM
CC[C@H](C)[C@@H]1NC(=O)[C@H](CN)NC(=O)[C@@H]2CCCN2C(=O)[C@H]([C@@H](C)CC)NC(=O)[C@H]2NC(=O)[C@H]([C@@H](C)CC)NC(=O)[C@@H]3CCCN3C(=O)[C@@H]3CCCN3C(=O)[C@H](CC(C)(C)C)NC(=O)[C@H](CO)NC(=O)[C@H](CCCNC(=N)N)NC(=O)[C@H](CO)NC(=O)[C@H](CSSC2(C)C)NC1=O [Example 55] (cyclo(CSRS[tBuAla]PPI[Pen]IP[Dap]I); disulfide 1-9)	900
CC[C@H](C)[C@@H]1NC(=O)[C@@H]2CCCN2C(=O)[C@H]([C@@H](C)CC)NC(=O)[C@H]2NC(=O)[C@H]([C@@H](C)CC)NC(=O)[C@@H]3CCCN3C(=O)[C@@H]3CCCN3C(=O)[C@H](CC(C)(C)C)NC(=O)[C@H](CO)NC(=O)[C@H](CCCNC(=N)N)NC(=O)[C@H](CO)NC(=O)[C@H](CSSC2(C)C)NC1=O [Example 88] (cyclo(CSRS[tBuAla]PPI[Pen]IPI); disulfide 1-9)	1000

The reported measurements were obtained from patent US20240010684A1.
